These entries and their values trace back to the NIST ThermoML archive (doi:10.1016/j.jct.2019.02.025).

Overview of reported refractive index across a group of molecules:
- Procedure Text: refractive index (Na D-line) (dimensionless)
- Reported Conditions: 338.15 K; 101.33 kPa; Liquid; Standard Abbe refractometry
Lab note: jot the number down without any unit.

For orientation, consider the following solved cases.
CCCCCCCCCCCCCC(=O)OC [methyl tetradecanoate] = 1.41783
CCCCCCC(=O)OCC [ethyl heptanoate] = 1.39311
CCCCCCCCCCCC(=O)OCC [ethyl dodecanoate] = 1.41295
CCCCCCC(=O)OC [methyl heptanoate] = 1.39167
CCCCCCCCCC(=O)OCC [ethyl decanoate] = 1.40661
CCCCCCCC(=O)OCC [ethyl octanoate] = 1.39823

What does the data say about its refractive index? Entry: CCCCCCCCCCCCCC(=O)OCC [ethyl tetradecanoate]
1.41803

# get_value(readout='refractive index', item= CCCCCCCCCCCC(=O)OC [methyl dodecanoate] )
1.41334

Need refractive index, item CCCCCC(=O)OCC [ethyl hexanoate]
1.38667

Look up refractive index: CCCCCCCC(=O)OC [methyl octanoate]
1.3975

Fill in: refractive index of CCCCCC(=O)OC [methyl hexanoate] is ___
1.38432

Which refractive index value is on record for CCCCCCCCCC(=O)OC [methyl decanoate] ?
1.40659

====

refractive index overview
- Procedure Text: refractive index (Na D-line) (dimensionless)
- Reported Conditions: 323.15 K; 101.33 kPa; Liquid; Standard Abbe refractometry
Returns: the value as a bare number; no unit string appended.

CCCCCCCCCCCCCC(=O)OCC [ethyl tetradecanoate] = 1.42407
CCCCCCCCCCCCCC(=O)OC [methyl tetradecanoate] = 1.42472
CCCCCCCCCC(=O)OCC [ethyl decanoate] = 1.41297

Which measured refractive index value corresponds to CCCCCCC(=O)OC [methyl heptanoate] ?
1.39841

GET /values?readout=refractive index&item= CCCCCCCCCCCC(=O)OCC [ethyl dodecanoate]
1.41915

====

- Procedure Text: refractive index (Na D-line) (dimensionless)
- Reported Conditions: 278.15 K; 101.33 kPa; Liquid; Standard Abbe refractometry
± gives the expanded uncertainty stated by the source.
Overview of reported refractive index across a group of compounds:

CCCCCCC(=O)OCC [ethyl heptanoate] = 1.42006 ± 0.00057
CCCCCCCCCC(=O)OC [methyl decanoate] = 1.43209 ± 0.00052
CCCCCCCC(=O)OC [methyl octanoate] = 1.42385 ± 0.00049

With those in mind, consider the next compound.
Reported refractive index, compound CCCCCCCCCC(=O)OCC [ethyl decanoate] : ____
1.43213 ± 0.00052

====

- Reported Conditions: 363.15 K; 101.33 kPa; Liquid; Vibrating tube method
Numbers after ± are expanded uncertainties.
Readout Name: mass density

Sample CCCCCC(=O)OCC [ethyl hexanoate] — what was its mass density?
804.45 ± 1.6 kg/m3

# get_value(readout='mass density', item= CCCCCCCCCCCC(=O)OCC [ethyl dodecanoate] )
807.16 ± 1.6 kg/m3

// mass density lookup, key: CCCCCCCCCCCCCC(=O)OCC [ethyl tetradecanoate]
807.75 ± 1.6 kg/m3

mass density for CCCCCCCCCCCCCC(=O)OC [methyl tetradecanoate] ?
813.71 ± 1.6 kg/m3

What does the data say about its mass density? Entry: CCCCCCCCCCCC(=O)OC [methyl dodecanoate]
813.94 ± 1.6 kg/m3

Report mass density for CCCCCCCCCC(=O)OCC [ethyl decanoate] please.
806.72 ± 1.6 kg/m3

====

- Reported Conditions: 373.15 K; 101.33 kPa; Liquid; Vibrating tube method
Numbers after ± are expanded uncertainties.
Readout Name: mass density

CCCCCCCCCCCC = 689.75 ± 1.4 kg/m3
CCCCCCCCCCCCCC(=O)OC [methyl tetradecanoate] = 806.17 ± 1.6 kg/m3

Query compound follows.
Which mass density value is on record for CCCCCCCCCCCC(=O)OC [methyl dodecanoate] ?
806.11 ± 1.6 kg/m3

====

- Reported Conditions: 333.15 K; 101.33 kPa; Liquid; Vibrating tube method
Readout Name: mass density (kg/m3)
Numbers only here, please. The scale is kg/m3.

CCCCCCCCCCCCCC(=O)OCC [ethyl tetradecanoate] = 830.3
CCCCCC(=O)OCC [ethyl hexanoate] = 833.25
CCCCCCCCCC(=O)OC [methyl decanoate] = 839.2
CCCCCCCCCCCC(=O)OCC [ethyl dodecanoate] = 830.53

Next, consider the following compound.
For CCCCCCC(=O)OC [methyl heptanoate] , what is its reported mass density?
843.15

====

Measured refractive index accompanies every entry in the list below.
- Procedure Text: refractive index (Na D-line) (dimensionless)
- Reported Conditions: 283.15 K; 101.33 kPa; Liquid; Standard Abbe refractometry
Quick one: just the number, no unit, thanks!

CCCCCCC(=O)OCC [ethyl heptanoate] = 1.41784
CCCCCCCC(=O)OC [methyl octanoate] = 1.42168
CCCCCCCCCCCC(=O)OCC [ethyl dodecanoate] = 1.43583

Returns the measured refractive index for the input compound. Input: CCCCCCCCCC(=O)OC [methyl decanoate]
1.42995

====

- Reported Conditions: 363.15 K; 101.33 kPa; Liquid; Vibrating tube method
Readout Name: mass density (kg/m3)
Value expressed in kg/m3; do not type the unit.

// known answers, use as guide
CCCCCCCCCC(=O)OC [methyl decanoate] = 814.38
CCCCCCCCCCCC = 697.21
CCCCCCC(=O)OCC [ethyl heptanoate] = 805.81
CCCCCC(=O)OC [methyl hexanoate] = 815.95

Which mass density value is on record for CCCCCCCC(=O)OC [methyl octanoate] ?
814.59

====

This section presents compounds with their documented refractive index values.
- Procedure Text: refractive index (Na D-line) (dimensionless)
- Reported Conditions: 313.15 K; 101.33 kPa; Liquid; Standard Abbe refractometry
No unit in the answer, only the number.

CCCCCCC(=O)OC [methyl heptanoate] = 1.40301

For the compound CCCCCCC(=O)OCC [ethyl heptanoate] , what refractive index is on record?
1.40445

Field request: refractive index | item: CCCCCCCCCCCCCC(=O)OCC [ethyl tetradecanoate]
1.4282

May I ask what refractive index has been recorded for CCCCCCCCCCCC(=O)OCC [ethyl dodecanoate] ?
1.42335

====

- Reported Conditions: 293.15 K; 101.33 kPa; Liquid; Vibrating tube method
# key: entry, value: mass density
Numeric answer only, unit kg/m3 assumed.

Worked set:
CCCCCCCCCCCCCC(=O)OC [methyl tetradecanoate] = 867.06
CCCCCCCCCC(=O)OC [methyl decanoate] = 872.34
CCCCCC(=O)OC [methyl hexanoate] = 884.44

What value of measured mass density is listed for CCCCCCCCCC(=O)OCC [ethyl decanoate] ?
864.08

Which mass density value is on record for CCCCCCCCCCCC(=O)OCC [ethyl dodecanoate] ?
862

Which mass density is reported for this compound? CCCCCCCCCCCCCC(=O)OCC [ethyl tetradecanoate]
860.8

====

- Procedure Text: refractive index (Na D-line) (dimensionless)
- Reported Conditions: 318.15 K; 101.33 kPa; Liquid; Standard Abbe refractometry
Readout Name: refractive index
Reply with the value as a number alone.

Worked cases, answers included:
CCCCCCC(=O)OC [methyl heptanoate] = 1.4007
CCCCCCCCCCCCCC(=O)OC [methyl tetradecanoate] = 1.42681
CCCCCCC(=O)OCC [ethyl heptanoate] = 1.40216

Attention now shifts to the item below.
# query: refractive index of entry CCCCCCCCCCCCCC(=O)OCC [ethyl tetradecanoate]
1.42613

====

- Procedure Text: refractive index (Na D-line) (dimensionless)
- Reported Conditions: 328.15 K; 101.33 kPa; Liquid; Standard Abbe refractometry
Readout Name: refractive index
In your answer, state the number alone without any accompanying words.

CCCCCC(=O)OCC [ethyl hexanoate] = 1.39128
CCCCCC(=O)OC [methyl hexanoate] = 1.38902

Please give the measured refractive index for this molecule: CCCCCCCC(=O)OC [methyl octanoate]
1.40183

# get_value(readout='refractive index', item= CCCCCCCCCCCC(=O)OC [methyl dodecanoate] )
1.4175

Data request, read-out refractive index, for CCCCCCC(=O)OC [methyl heptanoate]
1.39614

Consider the molecule shown here: CCCCCCCCCCCCCC(=O)OC [methyl tetradecanoate] What is its recorded refractive index?
1.42254

====

- Procedure Text: refractive index (Na D-line) (dimensionless)
- Reported Conditions: 323.15 K; 101.33 kPa; Liquid; Standard Abbe refractometry
Numbers after ± are expanded uncertainties.
Readout Name: refractive index

Reference set (4 entries):
CCCCCCCC(=O)OCC [ethyl octanoate] = 1.40481 ± 0.00052
CCCCCCCCCCCC(=O)OC [methyl dodecanoate] = 1.41959 ± 0.0005
CCCCCCCCCC(=O)OC [methyl decanoate] = 1.41295 ± 0.00052
CCCCCCC(=O)OCC [ethyl heptanoate] = 1.39988 ± 0.00057

# query: refractive index of entry CCCCCCCC(=O)OC [methyl octanoate]
1.40405 ± 0.00049

I would be grateful if you could share the reported refractive index for CCCCCC(=O)OC [methyl hexanoate] .
1.39136 ± 0.0005

For the compound CCCCCC(=O)OCC [ethyl hexanoate] , what refractive index is on record?
1.3936 ± 0.00053
